# TESTED ON: c-Met (M1250T) (Homo sapiens, UniProt P08581, M1250T)
# Sequence (P08581 956-1390 M1250T limits assumed): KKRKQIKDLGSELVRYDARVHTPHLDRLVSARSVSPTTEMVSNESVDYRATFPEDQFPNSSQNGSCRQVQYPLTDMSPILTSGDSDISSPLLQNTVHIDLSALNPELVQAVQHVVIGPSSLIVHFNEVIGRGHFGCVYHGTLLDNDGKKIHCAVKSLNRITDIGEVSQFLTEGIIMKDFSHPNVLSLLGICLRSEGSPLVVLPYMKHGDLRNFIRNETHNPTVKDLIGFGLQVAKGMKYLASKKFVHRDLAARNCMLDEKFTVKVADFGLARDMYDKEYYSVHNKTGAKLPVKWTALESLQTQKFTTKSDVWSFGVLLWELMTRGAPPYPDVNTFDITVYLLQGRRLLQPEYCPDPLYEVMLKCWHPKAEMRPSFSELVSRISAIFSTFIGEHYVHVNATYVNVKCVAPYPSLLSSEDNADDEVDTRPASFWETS
# TEST DETAILS: Z'-LYTE cell-free kinase assay
QUANTITY MEASURED: IC50 (µM)
Give bare numbers, in µM.

Q: # assay system c-Met (M1250T) (Homo sapiens, UniProt P08581, M1250T): give IC50 of C[C@@H]1O[C@@H](OC[C@H]2O[C@@H](Oc3c(-c4ccc(O)c(O)c4)oc4cc(O)cc(O)c4c3=O)[C@H](O)[C@@H](O)[C@@H]2O)[C@H](O)[C@H](O)[C@H]1O
Result: 8.5
